Reference source: patent US20210267948A1

# Tested on: OV90
# test_name: MTT cytotoxicity assay, OV90
# Format: cell-based, human
# study_conditions: OV90, wild-type BRCA1, 72 h; read-out: IC50, mean ± SEM
# Protocol: The MTT cytotoxicity assay was performed by incubating with MTT and monitoring the MTT formazan formed by viable cells with a microplate reader at a wavelength of 560 nm; the survival ratio was determined using the formula: (Atest−Ablank)/(Acontrol−Ablank)×100%. The cytotoxicity was determined in 96-well plates using the semiautomatic fluorescence-based Digital Imaging Microscopy System (DIMSCAN). […]
readout: pIC50
Numbers only, as −log10 of the molar value.

Find pIC50 for N.N.[Cl][Pt][Cl] [Cisplatin] on OV90 and write it down. 5.80

###

# Tested on: UWB1.289
# test_name: MTT cytotoxicity assay, UWB1.289
# Format: cell-based, human
# study_conditions: UWB1.289, BRCA1-defective, 72 h; read-out: IC50, mean ± SEM
readout: IC50 (nM)
Give bare numbers, in nM.

Provide IC50, tested on UWB1.289, for N.N.[Cl][Pt][Cl] [Cisplatin] . 1430

###

# Test system: multiple human cancer cell lines
# test_name: In vitro activity in multiple human cancer cell lines
# Type: cell-based
# study_conditions: in most cases
readout: IC50

Send back multiple human cancer cell lines IC50 of O=C(Nc1nc(-c2ccc(O)c(O)c2)c(-c2ccccc2)s1)c1ccc(O)c(O)c1 only. < 10 µM

###

# test_name: Exposure in animal toxicology studies
# study_conditions: in vivo, read-out: AUC, maximum level observed
readout: AUC (ng·h/mL)
One number for each entry, in ng·h/mL.

Give AUC for the following molecule: O=C(Nc1nc(-c2ccc(O)c(O)c2)c(-c2ccccc2)s1)c1ccc(O)c(O)c1 5000

###

# test_name: GLP toxicity study in dogs
# Assay type: in vivo
# study_conditions: beagle, dog, in vivo
readout: NOAEL (mg/kg/day)
Give bare numbers, in mg/kg/day.

In one line, give reported NOAEL of the entry O=C(Nc1nc(-c2ccc(O)c(O)c2)c(-c2ccccc2)s1)c1ccc(O)c(O)c1 . 84
